- assayed.system: T1, human calcitonin CGRP1 (CGRP1) membrane (human, UniProt Q16602 23-461; O60894 27-148)
- T1 construct: whole, on cells; Purchased membrane preparation (Perkin Elmer), homogenised in assay buffer; the receptor stood in membranes, not intact cells; also called CGRP receptors; CGRP receptor
- T1 sequence (Q16602 23-461, chain 1 of 2): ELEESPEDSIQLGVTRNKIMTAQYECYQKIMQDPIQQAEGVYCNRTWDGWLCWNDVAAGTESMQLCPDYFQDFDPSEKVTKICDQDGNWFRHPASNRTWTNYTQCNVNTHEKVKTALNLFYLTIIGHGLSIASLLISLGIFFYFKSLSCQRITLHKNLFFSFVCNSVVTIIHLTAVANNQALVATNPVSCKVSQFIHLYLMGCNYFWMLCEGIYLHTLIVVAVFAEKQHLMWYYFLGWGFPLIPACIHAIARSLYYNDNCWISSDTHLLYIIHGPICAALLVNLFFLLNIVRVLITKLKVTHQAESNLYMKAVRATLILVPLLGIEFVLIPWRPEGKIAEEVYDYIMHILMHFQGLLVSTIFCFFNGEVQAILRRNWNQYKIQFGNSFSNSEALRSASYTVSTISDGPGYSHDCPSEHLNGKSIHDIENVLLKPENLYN
- T1 sequence (O60894 27-148, chain 2 of 2): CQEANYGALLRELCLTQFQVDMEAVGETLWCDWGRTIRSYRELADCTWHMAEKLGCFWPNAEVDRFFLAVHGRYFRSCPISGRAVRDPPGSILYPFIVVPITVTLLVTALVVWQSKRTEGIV
- test: displacement of 0.24 nM [125I]-CGRP from human CGRP1 receptor membranes, filtration; Ki by Cheng-Prusoff; mean ± SD
No end group written: not given here.
Measured Ki values are reported for all entries that follow.
Numeric answer only, unit nM assumed.

Use these answered entries as a reference point.
# binder, assay.result
rows = [
    ("H-NLVPTNVGPFAF-NH2 (Analog of AFA-peptide 3: NH2-N-L-V-P-T-N-V-G-P-F-A-F-CONH2) [AFA-Peptide 8 (MP-8)]", 315),
    ("H-NFIPTNVGPFAF-NH2 (Analog of AFA-peptide 3: NH2-N-F-I-P-T-N-V-G-P-F-A-F-CONH2) [AFA-Peptide 6 (MP-6)]", 63.7),
    ("H-NFVPTNVGPFAF-NH2 (Synthetic dodecapeptide NH2-N-F-V-P-T-N-V-G-P-F-A-F-CONH2; also called AFA-CGRP receptor antagonist peptide 3) [AFA-Peptide 3 (MP-3)]", 33.3),
    ("H-NFFPTNVGPFAF-NH2 (Analog of AFA-peptide 3: NH2-N-F-F-P-T-N-V-G-P-F-A-F-CONH2) [AFA-Peptide 9 (MP-9)]", 49.6),
    ("H-NFLPTNVGPFAF-NH2 (Analog of AFA-peptide 3: NH2-N-F-L-P-T-N-V-G-P-F-A-F-CONH2) [AFA-Peptide 7 (MP-7)]", 54.8),
    ("H-NFAPTNVGPFAF-NH2 (Analog of AFA-peptide 3: NH2-N-F-A-P-T-N-V-G-P-F-A-F-CONH2) [AFA-Peptide 10 (MP-10)]", 33.4),
]

Next, consider the following binder.
Exercise: Given the binder YVPTAVGPFAF-NH2 (also called conventional CGRP 27-37) [CGRP 27-37] , what is its reported Ki?
Solution: 697
